Run description: Cmax in CD1 mouse plasma in fasting state at 11 mg/kg, ip administered as single dose measured after 24 hrs by LC-MS/MS analysis
Format: ADME, organism-based
Set-up: route intraperitoneal, dose 11 mg/kg, time 24 hrs
Measured attribute: Cmax (µM)
Give a bare numeral; the unit µM is implied.

Value of measured Cmax for the entry Cl.N[C@]1(C(=O)O)[C@@H]2[C@@H](C(=O)O)[C@@H]2[C@H](O)[C@H]1CSc1ccc(F)c(F)c1 : 38.4

* * *

Consider the following molecules and their measured pKi readings.
Assay target: Metabotropic glutamate receptor 3 (Homo sapiens)
Sequence (Q14832 whole entry): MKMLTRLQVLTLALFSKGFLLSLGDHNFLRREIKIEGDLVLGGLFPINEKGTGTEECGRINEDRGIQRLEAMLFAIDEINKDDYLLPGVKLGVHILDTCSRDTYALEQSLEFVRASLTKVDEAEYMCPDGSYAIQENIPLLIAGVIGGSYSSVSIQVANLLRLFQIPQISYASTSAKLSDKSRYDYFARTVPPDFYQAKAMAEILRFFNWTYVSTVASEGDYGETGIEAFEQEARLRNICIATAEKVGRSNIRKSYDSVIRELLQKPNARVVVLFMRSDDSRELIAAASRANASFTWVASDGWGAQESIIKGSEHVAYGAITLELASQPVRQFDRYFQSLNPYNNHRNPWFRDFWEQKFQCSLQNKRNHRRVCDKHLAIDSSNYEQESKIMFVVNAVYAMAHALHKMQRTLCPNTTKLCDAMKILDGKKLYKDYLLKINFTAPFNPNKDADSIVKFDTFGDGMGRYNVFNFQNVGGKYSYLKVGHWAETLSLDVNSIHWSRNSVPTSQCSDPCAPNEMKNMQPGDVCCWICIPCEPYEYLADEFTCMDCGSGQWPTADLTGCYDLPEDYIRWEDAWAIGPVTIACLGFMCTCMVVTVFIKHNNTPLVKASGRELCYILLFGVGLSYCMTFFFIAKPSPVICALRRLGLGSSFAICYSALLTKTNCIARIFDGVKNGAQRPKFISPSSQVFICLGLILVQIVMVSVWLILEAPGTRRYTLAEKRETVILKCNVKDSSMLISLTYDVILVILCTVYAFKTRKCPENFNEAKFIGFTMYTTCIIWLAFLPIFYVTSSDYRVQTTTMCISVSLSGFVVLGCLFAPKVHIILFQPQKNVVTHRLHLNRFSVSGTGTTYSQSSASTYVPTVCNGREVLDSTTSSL
Run description: Displacement of [3H]-LY459477 from recombinant human mGlu3 receptor expressed in hamster AV12 cell membranes co-expressing rat EAAT1 incubated for 90 mins by top count scintillation method
To interpret pKi, take it as minus log10 of a concentration measured in moles per litre.

Looking up N[C@]1(C(=O)O)[C@@H]2[C@@H](C(=O)O)[C@@H]2[C@H](O)[C@H]1CSc1cccc(F)c1 , I found its pKi recorded as 7.60

---
Reported pKi ( N[C@]1(C(=O)O)[C@@H]2[C@@H](C(=O)O)[C@@H]2[C@H](O)[C@H]1CSc1ccccc1 ) = 7.72

# pKi of Cc1cc(SC[C@@H]2[C@@H](N)[C@H]3[C@H](C(=O)O)[C@H]3[C@]2(N)C(=O)O)ccc1F = 7.44

Per the record, N[C@]1(C(=O)O)[C@@H]2[C@@H](C(=O)O)[C@@H]2[C@@H](O)[C@@H]1CSc1ccccc1 has pKi of 6.62

Sample N[C@]1(C(=O)O)[C@@H]2[C@@H](C(=O)O)[C@@H]2[C@H](O)[C@H]1CSc1ccc(F)cc1 ; pKi observed: 8.17

# molecule N[C@]1(C(=O)O)[C@@H]2[C@@H](C(=O)O)[C@@H]2[C@H](O)[C@H]1CSc1ccc(Cl)c(Cl)c1 ; its pKi = 8.03

The measured pKi associated with Cl.N[C@]1(C(=O)O)[C@@H]2[C@@H](C(=O)O)[C@@H]2[C@H](O)[C@H]1CSc1ccc(F)c(F)c1 reads 8.60

Please fill in: pKi reported for N[C@]1(C(=O)O)[C@@H]2[C@@H](C(=O)O)[C@@H]2[C@H](O)[C@@H]1CSc1ccccc1 = 6.60

Record N[C@]1(C(=O)O)[C@@H]2[C@@H](C(=O)O)[C@@H]2[C@H](O)[C@H]1CSCc1ccc(Cl)c(Cl)c1 , field pKi: 7.79

Lab note: N[C@]1(C(=O)O)[C@@H]2[C@@H](C(=O)O)[C@@H]2[C@H](O)[C@H]1CSc1ccccc1F gave pKi of 6.43

Entry CC(=O)N[C@H]1[C@H]2[C@H](C(=O)O)[C@H]2[C@](N)(C(=O)O)[C@@H]1CSc1ccc(F)c(C)c1 — recorded pKi = 8.11

Consider N[C@]1(C(=O)O)[C@@H]2[C@@H](C(=O)O)[C@@H]2[C@@H](O)[C@H]1CSc1ccccc1 . Its measured pKi is 7.59
